molecular target: hOX2R (Homo sapiens, UniProt O43614); construct: expressed in transfected cells; host or cells: CHO cells (G418 selection); assay: hOX2R IPone assay (orexin receptor agonism); format: cell-based; settings: maximal activation, IPone readout
Sequence (O43614 whole entry): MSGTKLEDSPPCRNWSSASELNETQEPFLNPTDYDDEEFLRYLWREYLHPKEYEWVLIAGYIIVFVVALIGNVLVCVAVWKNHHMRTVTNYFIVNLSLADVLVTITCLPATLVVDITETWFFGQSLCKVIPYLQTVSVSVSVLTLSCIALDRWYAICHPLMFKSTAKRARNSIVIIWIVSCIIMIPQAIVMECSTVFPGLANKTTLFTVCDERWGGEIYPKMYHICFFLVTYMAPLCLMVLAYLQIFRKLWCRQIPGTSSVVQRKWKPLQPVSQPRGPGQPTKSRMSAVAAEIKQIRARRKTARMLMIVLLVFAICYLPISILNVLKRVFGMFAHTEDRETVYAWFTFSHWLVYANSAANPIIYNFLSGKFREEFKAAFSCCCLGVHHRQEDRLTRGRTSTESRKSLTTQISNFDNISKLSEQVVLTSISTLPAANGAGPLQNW
READOUT: hOX2R_Ipone max %act (%)
One number for each entry, in %.

MOLECULE: CCN1C(=O)N[C@H](C(F)(F)F)CCCCCOc2nc(cn3ccnc23)-c2cc(ncc2OC)[C@H]1C
OBSERVED_VALUE: 97.2
--
MOLECULE: CCN1C(=O)NC(CCC(F)F)CCCCCOc2nc(nn3ccnc23)-c2cc(ncc2OC)[C@H]1C (stereo partly shown)
OBSERVED_VALUE: 99.8
--
MOLECULE: CCN1C(=O)NC(C#N)CCCCCOc2nc(cn3ccnc23)-c2cc(ncc2OC)[C@H]1C (single isomer, unassigned)
OBSERVED_VALUE: 99.26

Lab note: each molecule below needs its hOX2R_Ipone max %act filled in.
1. CCN1C(=O)NC(c2cscn2)CCCCCOc2nc(cn3ccnc23)-c2cccc(c2)[C@H]1C (single isomer, unassigned) [Example 19A]
2. CCN1C(=O)N[C@@H](CCC(F)(F)F)CCCCCOc2nc(cn3ccnc23)-c2nc(ccc2OC)[C@H]1C
3. CCN1C(=O)NC(c2nnnn2C)CCCCCOc2nc(cn3ccnc23)-c2cc(ncc2OC)[C@H]1C (stereo partly shown)
4. CCN1C(=O)NC(C(C)OC)CCCCCOc2nc(cn3ccnc23)-c2cc(ncc2OC)[C@H]1C (stereo partly shown)

[97.1, 102, 100.1, 102.3]

---

Would you mind telling me the reported hOX2R_Ipone max %act of each entry?
biological target: hOX2R (Homo sapiens); construct: expressed in transfected cells; host or cells: CHO cells (G418 selection); experiment: hOX2R IPone assay (orexin receptor agonism); assay type: cell-based; details: maximal activation, IPone readout
Numbers only, in %.

Below are some compounds; for each one, tell me its hOX2R_Ipone max %act.
1. CCN1C(=O)NC(CC2(C)CC2)CCCCCOc2nc(nn3ccnc23)-c2cc(ncc2OC)[C@H]1C (some centres unmarked) [Example 206]
2. CCN1C(=O)NC(C2CCOC2)CCCCCOc2nc(cn3ccnc23)-c2cc(ncc2OC)[C@H]1C (some centres unmarked) [Example 189]
3. CCN1C(=O)NCCCCCCOc2nc(cn3ccnc23)-c2cccc(c2)[C@H]1C [Example 12]
4. CCN1C(=O)NC(C2CCCO2)CCCCCOc2nc(cn3ccnc23)-c2cc(ncc2OC)[C@H]1C (some centres unmarked) [Example 193]
5. CCN1C(=O)NC(CC#N)CCCCCOc2nc(cn3ccnc23)-c2cc(ncc2OC)[C@H]1C (some centres unmarked) [Example 194]
6. CCN1C(=O)N[C@@H](CCC(F)(F)F)CCCCCOc2nc(cn3ccnc23)-c2cc(ccn2)[C@H]1C [Example 113B]
7. CCN1C(=O)NC(CC(C)C)CCCCCOc2nc(cn3ccnc23)-c2cc(ncc2OC)[C@H]1C (single isomer, unassigned) [Example 53B]
8. CCN1C(=O)N[C@@H](CCC(F)(F)F)CCCCCOc2nc(cn3ccnc23)-c2cc(ncc2C)[C@H]1C [Example 79]

107.8
99.85
99.76
100.7
102.2
100.9
102.3
99.3

List hOX2R_Ipone max %act for every entry below, keeping the order given.
1. CCN1C(=O)N[C@@H](CCC(F)(F)F)CCCCCOc2nc(cn3ccnc23)-c2nc(co2)C1C (single isomer, unassigned) [Example 105A]
2. CCN1C(=O)NC(CC2CC(F)(F)C2)CCCCCOc2nc(cn3ccnc23)-c2cc(ncc2OC)[C@H]1C (single isomer, unassigned) [Example 69A]
3. CCN1C(=O)NC(CC2(C(F)F)CC2)CCCCCOc2nc(cn3ccnc23)-c2cc(ncc2OC)[C@H]1C (single isomer, unassigned) [Example 70B]
4. CCN1C(=O)N[C@@H](CCC(F)(F)F)CCCCCOc2nc(cc3cccnc23)-c2cc(ncc2OC)[C@H]1C [Example 162]

1. 73.0
2. 99.7
3. 99.8
4. 104.8

# per-item lookup of hOX2R_Ipone max %act; items listed below
1. CCN1C(=O)N[C@@H](CCC(F)(F)F)CCCCCOc2nc(cn3ccnc23)-c2cnnc(c2)[C@H]1C [Example 159]
2. CCN1C(=O)NC(c2ccon2)CCCCCOc2nc(cn3ccnc23)-c2cccc(c2)[C@H]1C (mixture of isomers) [Example 20]

[72.77, 98.31]

// data source = patent US12686690B2
